EC50 listing for selected compounds.
# TESTED_SYSTEM: cloned human M2 receptor (Homo sapiens, UniProt P08172)
# Sequence (P08172 1-466): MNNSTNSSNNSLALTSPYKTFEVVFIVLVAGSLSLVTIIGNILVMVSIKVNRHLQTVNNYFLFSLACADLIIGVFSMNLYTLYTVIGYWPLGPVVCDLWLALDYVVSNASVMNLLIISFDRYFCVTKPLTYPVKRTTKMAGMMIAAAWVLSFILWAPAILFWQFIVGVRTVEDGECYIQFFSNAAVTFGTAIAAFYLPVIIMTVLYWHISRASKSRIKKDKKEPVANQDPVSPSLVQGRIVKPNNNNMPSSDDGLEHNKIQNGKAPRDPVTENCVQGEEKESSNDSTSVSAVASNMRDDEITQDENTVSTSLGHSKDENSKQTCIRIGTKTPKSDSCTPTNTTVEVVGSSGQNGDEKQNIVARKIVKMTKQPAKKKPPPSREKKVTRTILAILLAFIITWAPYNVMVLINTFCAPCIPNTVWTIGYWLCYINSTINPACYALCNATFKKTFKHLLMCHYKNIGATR
# TEST_SUMMARY: hM2 receptor GTPγS binding
# APPLIED_CONDITIONS: CHO membranes expressing hM2, [35S]GTPγS binding

Form field: reported EC50 of O=C1CO[C@H]2CCCC[C@@H]2N1C1CCN(C2CCC(COCC3CCC3)CC2)CC1 (single isomer, unassigned) [Example 28] > 90 µM

Form field: reported EC50 of CCOCC1CCC(N2CCC(N3C(=O)CO[C@H]4CCCC[C@@H]43)CC2)CC1 (single isomer, unassigned) [Example 13] > 21 µM

Form field: reported EC50 of CC(C)OCC1CCC(N2CCC(N3C(=O)CO[C@H]4CCC(F)(F)C[C@@H]43)CC2)CC1 (single isomer, unassigned) [Example 37] > 13 µM

Form field: reported EC50 of O=C1CO[C@H]2CCCC[C@@H]2N1C1CCN(C2CCC(COCC3CCC3)CC2)CC1 (single isomer, unassigned) [Example 29] > 90 µM
